Tested on: HOP-62 complex spheroids with HUVEC/MSC, viability
EXPERIMENT DESCRIPTION: Anticancer human tumor HOP-62 cell line growth inhibition [RAS];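 further: spheroids exposed to agents for seven days before readout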
ASSAY SETUP: curve of first compound; second compound 0.000949 µM
Reported IC50 values for a set of molecules

## Input Name the value of IC50 reported for CC1(C)CCC(Nc2ncc(C(F)(F)F)c(-c3c[nH]c4c(P(C)(C)=O)c(C#N)ccc34)n2)CN1 (centres undefined) + CCn1c(-c2cccnc2C(C)OC)c2c3cc(ccc31)N1CCOC(CC(NC(=O)C(C(C)C)N(C)C(=O)C3(F)CCN(C(=O)C#CC(C)(C)N(C)C)CC3)C(=O)N3CCCC(N3)C(=O)OCC(C)(C)C2)C1 when tested on HOP-62 complex spheroids with HUVEC/MSC, viability.
## Output > 0.3 µM

###

Quick list: viability, T/C per entry.
Tested on: HOP-62 complex spheroids with HUVEC/MSC, viability
EXPERIMENT DESCRIPTION: Anticancer human tumor HOP-62 cell line growth inhibition [RAS];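 further: spheroids exposed to agents for seven days before readout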;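 on viability, T/C: 100% = DMSO vehicle control viability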
ASSAY SETUP: second compound 0.003 µM; first compound 1 µM; stronger effect = lower value
Give just the numeric value; % need not be written.

Solved cases below.
COMPOUND	RESULT NUMBER
Cc1nc(N2CCC3(CC2)COC(C)C3N)c(CO)nc1Sc1ccnc(N)c1Cl (stereo not drawn) + CCn1c(-c2cc(N3CCN(C)CC3)cnc2C(C)OC)c2c3cc(ccc31)-c1csc(n1)CC(NC(=O)C1CC1C)C(=O)N1CCCC(N1)C(=O)OCC(C)(C)C2	45.6
NC1c2ccccc2OC12CCN(c1cnc3c(N4CCCc5ncccc54)n[nH]c3n1)CC2 (stereo not drawn) + CCn1c(-c2cccnc2C(C)OC)c2c3cc(ccc31)N1CCOC(CC(NC(=O)C(C(C)C)N(C)C(=O)C3(F)CCN(C(=O)C#CC(C)(C)N(C)C)CC3)C(=O)N3CCCC(N3)C(=O)OCC(C)(C)C2)C1	23.9

Attention now shifts to the item below.
## Input Output measured viability, T/C for this item: CC(C)NCC(C(=O)N1CCN(c2ncnc3c2C(C)CC3O)CC1)c1ccc(Cl)cc1 (stereo not drawn) + CCn1c(-c2cccnc2C(C)OC)c2c3cc(ccc31)N1CCOC(CC(NC(=O)C(C(C)C)N(C)C(=O)C3(F)CCN(C(=O)C#CC(C)(C)N(C)C)CC3)C(=O)N3CCCC(N3)C(=O)OCC(C)(C)C2)C1
## Output 67.7

###

Tested on: HOP-62 complex spheroids with HUVEC/MSC, viability
EXPERIMENT DESCRIPTION: Anticancer human tumor HOP-62 cell line growth inhibition [RAS]; active = viability on the fitted dose curve at most 10% of control; inactive = the rest;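 further: spheroids exposed to agents for seven days before readout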
ASSAY SETUP: second compound 1 µM; first compound 0.316 µM
API: response.call in YES for active, NO for inactive

MOLECULE	ASSIGNED CLASS
CC(C)NCC(C(=O)N1CCN(c2ncnc3c2C(C)CC3O)CC1)c1ccc(Cl)cc1 (stereo not given) + C#Cc1c(F)ccc2cc(O)cc(-c3ncc4c(N5CC6CCC(C5)N6)nc(OCC56CCCN5CC(F)C6)nc4c3F)c12	NO
C[C@@H](NC(=O)c1ncnc(N)c1Cl)c1ncc(C(=O)Nc2cc(C(F)(F)F)c(Cl)cn2)s1 + C=CC(=O)N1CCN(c2nc(OCC3CCCN3C)nc3c(F)c(-c4nc(N)cc(C)c4C(F)(F)F)c(Cl)cc23)C(C)C1	NO
C=CC(=O)Nc1cc(Nc2nccc(-c3cn(C)c4ccccc34)n2)c(OC)cc1N(C)CCN(C)C + C=CC(=O)N1CCN(c2nc(OCC3CCCN3C)nc3c(F)c(-c4nc(N)cc(C)c4C(F)(F)F)c(Cl)cc23)C(C)C1	NO
CCC(CC)c1cc(NC2CCC(N)C2)n2nccc2n1 (stereo not given) + C#Cc1c(F)ccc2cc(O)cc(-c3ncc4c(N5CC6CCC(C5)N6)nc(OCC56CCCN5CC(F)C6)nc4c3F)c12	NO

Here is another molecule to look at.
## Input Hi, sorry to bother you, what did the test record for Nc1ccn(C2OC(CO)C(O)C2(F)F)c(=O)n1 (stereo not given) + C#Cc1c(F)ccc2cc(O)cc(-c3ncc4c(N5CC6CCC(C5)N6)nc(OCC56CCCN5CC(F)C6)nc4c3F)c12 ?
## Output YES
